Measured values drawn from patent US12275719B2 for this set.

Documented pIC50 across a set of compounds
- System name: His-tagged recombinant human Gal-3 (hGal-3) (Homo sapiens, UniProt P17931)
- Sequence (P17931 whole entry): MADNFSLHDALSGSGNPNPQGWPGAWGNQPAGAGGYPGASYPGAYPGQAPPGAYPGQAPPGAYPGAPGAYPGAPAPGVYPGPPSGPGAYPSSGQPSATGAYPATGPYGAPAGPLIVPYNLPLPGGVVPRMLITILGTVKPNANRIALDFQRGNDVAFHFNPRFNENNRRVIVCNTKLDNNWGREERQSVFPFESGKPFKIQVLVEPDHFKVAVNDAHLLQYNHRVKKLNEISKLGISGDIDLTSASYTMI
- Assay protocol: Gal-3 HTRF assay (hGal-3 / B-ASF binding inhibition)
- Condition info: table of Examples 30 to 65
pIC50: −log10 of the molar value.
Reported metric: pIC50

Compound	Reported metric	Result
OC[C@H]1O[C@@H](c2nncn2-c2cc(Cl)ccc2C(F)(F)F)[C@H](O)[C@@H](n2cc(-c3cc(F)c(Cl)c(Cl)c3)nn2)[C@H]1O [Example 34]	pIC50	7.70
OC[C@H]1O[C@@H](c2nncn2-c2cc(Cl)ccc2C(F)(F)F)[C@H](OCC(F)(F)F)[C@@H](n2cc(-c3ccc(Br)c(F)c3)nn2)[C@H]1O [Example 63]	pIC50	7.11
OC[C@H]1O[C@@H](c2nncn2-c2cc(Cl)ccc2OC(F)(F)F)[C@H](OCC(F)(F)C(F)F)[C@@H](n2cc(-c3ccc(Br)c(F)c3F)nn2)[C@H]1O [Example 61]	pIC50	7.31
